Listed compounds paired with reported The amount of solvent to dissolve 1 g of the compounds (ml), demineralized water
Method description: Solubility test
Assay type: physicochemical
Assay setup: demineralized water, ordinary temperature
Measurement type: The amount of solvent to dissolve 1 g of the compounds (ml), demineralized water (mL)

[[record]]
test_smiles = "CO[C@@H]1[C@H](OC(=O)/C=C/c2ccc(NCCO)cc2)CC[C@]2(CO2)[C@H]1[C@@]1(C)O[C@@H]1CC=C(C)C"
observed_measurement = 132

[[record]]
test_smiles = "COc1cc(/C=C/C(=O)O[C@@H]2CC[C@]3(CO3)[C@@H]([C@@]3(C)O[C@@H]3CC=C(C)C)[C@@H]2OC)ccc1OCCO"
observed_measurement = 142

[[record]]
test_smiles = "CO[C@@H]1[C@H](OC(=O)/C=C/c2ccc(OCCOCCOCCO)cc2)CC[C@]2(CO2)[C@H]1[C@@]1(C)O[C@@H]1CC=C(C)C"
observed_measurement = 120

[[record]]
test_smiles = "CO[C@@H]1[C@H](OC(=O)/C=C/c2ccc(OCCCCO)cc2)CC[C@]2(CO2)[C@H]1[C@@]1(C)O[C@@H]1CC=C(C)C"
observed_measurement = 150

